B1: tRNA (parent)
chain: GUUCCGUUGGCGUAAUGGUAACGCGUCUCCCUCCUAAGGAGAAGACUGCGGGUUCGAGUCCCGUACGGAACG

variants of: B1; experiment: yeast fitness relative to wild type (ratio to wild type); higher = fitter; tRNA-Arg(CCU), competitive growth, 37 C, YPD
This sample holds only a part of the variants without activity.
Measurement Label: yeast fitness

What value of yeast fitness has been reported for the following variant? A15U C60G C66G
≤ 0.5

Reported yeast fitness, variant C31U A42G G63C C66U : ____
≤ 0.5

Request the reported yeast fitness associated with A15C U26C C62U
≤ 0.5

Value lookup for yeast fitness; key = G6A G10C A20G C22U G38C U53C C61G
≤ 0.5

Item C11U C22A C31U G68C has what recorded yeast fitness?
≤ 0.5

Form field: reported yeast fitness of U26A A42C C49U C60G U64C C66A
≤ 0.5
